- TARGET UNDER TEST: human full length PIK3CA H1047R mutant (p110α/p85α complex) (Homo sapiens (Human), UniProt P42336, H1047R)
- Sequence (P42336 whole entry H1047R): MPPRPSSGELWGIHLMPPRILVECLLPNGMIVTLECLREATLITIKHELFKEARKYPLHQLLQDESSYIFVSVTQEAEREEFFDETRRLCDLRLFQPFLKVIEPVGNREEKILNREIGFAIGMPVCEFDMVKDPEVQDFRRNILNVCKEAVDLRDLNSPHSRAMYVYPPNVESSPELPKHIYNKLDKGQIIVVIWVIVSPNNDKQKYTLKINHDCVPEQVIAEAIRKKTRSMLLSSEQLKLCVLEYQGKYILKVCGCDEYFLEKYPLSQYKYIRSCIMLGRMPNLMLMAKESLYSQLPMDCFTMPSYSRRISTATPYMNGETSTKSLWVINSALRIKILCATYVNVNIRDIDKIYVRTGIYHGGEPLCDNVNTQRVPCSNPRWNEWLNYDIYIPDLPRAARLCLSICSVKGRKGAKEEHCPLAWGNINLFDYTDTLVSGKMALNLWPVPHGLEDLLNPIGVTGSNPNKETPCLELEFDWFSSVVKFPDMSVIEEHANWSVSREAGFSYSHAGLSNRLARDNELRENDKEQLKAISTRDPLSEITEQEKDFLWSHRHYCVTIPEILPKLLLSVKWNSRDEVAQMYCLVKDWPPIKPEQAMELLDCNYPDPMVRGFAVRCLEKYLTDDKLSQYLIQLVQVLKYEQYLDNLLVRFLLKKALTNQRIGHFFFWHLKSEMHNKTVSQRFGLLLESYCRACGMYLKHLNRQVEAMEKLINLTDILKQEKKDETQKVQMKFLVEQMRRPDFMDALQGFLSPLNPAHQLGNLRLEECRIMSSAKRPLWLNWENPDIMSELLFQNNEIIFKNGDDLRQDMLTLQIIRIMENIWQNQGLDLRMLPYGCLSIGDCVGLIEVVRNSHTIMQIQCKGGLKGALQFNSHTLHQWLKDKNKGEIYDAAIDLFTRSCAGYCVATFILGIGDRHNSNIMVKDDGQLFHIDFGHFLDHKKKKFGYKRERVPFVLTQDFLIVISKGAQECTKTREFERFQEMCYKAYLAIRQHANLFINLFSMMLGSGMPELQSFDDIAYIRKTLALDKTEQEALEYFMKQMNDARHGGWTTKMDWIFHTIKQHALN
- Sequence (P27986 whole entry partner): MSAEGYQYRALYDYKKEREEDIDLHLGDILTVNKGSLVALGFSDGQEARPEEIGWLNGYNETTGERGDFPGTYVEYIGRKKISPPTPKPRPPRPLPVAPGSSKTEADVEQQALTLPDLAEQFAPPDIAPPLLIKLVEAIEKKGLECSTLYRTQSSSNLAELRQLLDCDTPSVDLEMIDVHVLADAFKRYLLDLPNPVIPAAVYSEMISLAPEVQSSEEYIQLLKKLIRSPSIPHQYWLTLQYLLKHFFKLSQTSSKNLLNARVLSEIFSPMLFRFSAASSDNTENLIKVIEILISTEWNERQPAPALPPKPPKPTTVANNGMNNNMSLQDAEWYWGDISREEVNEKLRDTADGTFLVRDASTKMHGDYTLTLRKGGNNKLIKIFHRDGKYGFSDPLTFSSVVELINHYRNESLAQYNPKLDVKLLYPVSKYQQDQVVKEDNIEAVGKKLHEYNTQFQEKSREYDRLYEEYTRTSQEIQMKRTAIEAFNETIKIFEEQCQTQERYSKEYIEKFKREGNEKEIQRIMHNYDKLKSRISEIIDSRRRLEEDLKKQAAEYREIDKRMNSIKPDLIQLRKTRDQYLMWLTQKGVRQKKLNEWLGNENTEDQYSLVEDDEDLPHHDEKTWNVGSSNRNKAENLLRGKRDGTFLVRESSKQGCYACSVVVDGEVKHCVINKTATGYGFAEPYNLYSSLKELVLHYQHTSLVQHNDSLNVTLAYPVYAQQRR
- METHOD DESCRIPTION: PI3K-Alpha kinase (PIK3CA) activity, H1047R mutant, Transcreener ADP2 FI assay
- REPORTED CONDITIONS: PI3K-α (PIK3CA) H1047R mutant, biochemical
QUANTITY: IC50

Reference set, count: 3
- MOLECULE: "Cc1cc(C(C)Nc2ccccc2C(=O)O)c2oc(N3CCC(F)(F)CC3)cc(=O)c2c1 (single isomer, unassigned)"
  QUANTITY: "IC50"
  OBS VALUE: "< 500 nM"
- MOLECULE: "COC12CC(C1)N(c1cc(=O)c3cc(C)cc(C(C)Nc4ccccc4C(=O)O)c3o1)C2 (single isomer, unassigned) [Example 111]"
  QUANTITY: "IC50"
  OBS VALUE: "> 10000 nM"
- MOLECULE: "Cc1cc(C(C)Nc2ccccc2C(=O)O)c2oc(N3CC4(CCN4c4ccccc4)C3)cc(=O)c2c1 (single isomer, unassigned)"
  QUANTITY: "IC50"
  OBS VALUE: "< 500 nM"

Provide only the value of recorded IC50 for Cc1c(N2Cc3ccc(F)cc3C2)oc2c(C(C)Nc3ccccc3C(=O)O)cc(F)cc2c1=O (single isomer, unassigned)
< 500 nM

Provide only the value of recorded IC50 for Cc1cc(C(C)Nc2cccc3c2C(=O)NC3)c2oc(N3CCC(C)(C)CC3)cc(=O)c2c1 (stereo not shown)
1000 to 5000 nM

Provide only the value of recorded IC50 for Cc1cc(C(C)Nc2ccc(Cl)nc2C(=O)O)c2oc(N3Cc4ccccc4C3)cc(=O)c2c1 (stereo not shown)
500 to 1000 nM

Provide only the value of recorded IC50 for CNC(=O)C1CCN(c2cc(=O)c3cc(C)cc(C(C)Nc4ccccc4C(=O)O)c3o2)CC1 (stereo not shown)
1000 to 5000 nM
